- procedureSummary: in vitro
- settings: human, hela cells, % viability
Reported viability at 28.5 h, 10 µM values follow for various molecules
Your answer is read as %, so omit the unit and give the number.

For orientation, consider the following solved cases.
1. CC(C)NC(=O)C1(Cc2ccc(-c3ccccc3)cc2)CCN(C(=O)C2CCC2)CC1 :: 102
2. CC(C)Nc1nccnc1-c1ccc(CO)cc1 :: 90.1
3. CCC1C=CCN1S(=O)(=O)c1cccc(C(=O)NCc2cnn(C)c2)c1 (centres unmarked) :: 96.4

Then there is this molecule:
Lab note: CC(CC(=O)N1CCOC(c2nc(C(C)(C)C)n[nH]2)C1)n1cccc1 (centres unmarked) gave viability at 28.5 h, 10 µM of 82.8
